Entry source: the RNAGym collection of RNA variant scans (doi:10.1038/s41586-018-0170-7)

# yeast fitness (ln) annotations
B1: tRNA (parent)
chain: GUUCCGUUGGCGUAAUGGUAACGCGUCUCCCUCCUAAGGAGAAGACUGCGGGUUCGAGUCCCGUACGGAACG

# Variants of: B1
# protocol: yeast fitness, log relative to wild type (ln ratio); higher = fitter; tRNA-Arg(CCU), competitive growth, 37 C, 1 M NaCl
parameter.measured: yeast fitness (ln)

[[record]]
variant = "U2G G6A C27U A43C C46U A70G"
parameter_measured = "yeast fitness (ln)"
reported_measurement = -0.145

[[record]]
variant = "G1A U2G G6A C46U C66U A70G C71U"
parameter_measured = "yeast fitness (ln)"
reported_measurement = -0.517

[[record]]
variant = "G1A U2G G6U A43C C66A A70G"
parameter_measured = "yeast fitness (ln)"
reported_measurement = -0.251

[[record]]
variant = "G1A U2G C27U A43C C46U C66U A69G A70G C71U"
parameter_measured = "yeast fitness (ln)"
reported_measurement = -0.3

[[record]]
variant = "G1A U2G G6U C27U A69G C71U"
parameter_measured = "yeast fitness (ln)"
reported_measurement = -0.274

[[record]]
variant = "G1A G6A C27U A70G C71U"
parameter_measured = "yeast fitness (ln)"
reported_measurement = -0.332

[[record]]
variant = "G1A U2C C27U A43C C46U C66A A70U C71U"
parameter_measured = "yeast fitness (ln)"
reported_measurement = -0.27

[[record]]
variant = "G1A U2C A43C C66U A70U"
parameter_measured = "yeast fitness (ln)"
reported_measurement = -0.169

[[record]]
variant = "U2G G6U C27U A43C C46U A69G C71U"
parameter_measured = "yeast fitness (ln)"
reported_measurement = -0.336

[[record]]
variant = "G1A U2C C27U A43C C46U C71U"
parameter_measured = "yeast fitness (ln)"
reported_measurement = -0.178

[[record]]
variant = "G1A U2C G6U C46U C66A"
parameter_measured = "yeast fitness (ln)"
reported_measurement = -0.141

[[record]]
variant = "U2C G6A C27U C46U C66U A69G A70G C71U"
parameter_measured = "yeast fitness (ln)"
reported_measurement = -0.0479

[[record]]
variant = "G1A C66A A70G C71U"
parameter_measured = "yeast fitness (ln)"
reported_measurement = -0.0638

[[record]]
variant = "G1A A43C C46U C66U A69G A70G C71U"
parameter_measured = "yeast fitness (ln)"
reported_measurement = -0.263

[[record]]
variant = "U2C G6A C27U C46U C66A A70G C71U"
parameter_measured = "yeast fitness (ln)"
reported_measurement = -0.228

[[record]]
variant = "G1A U2C C27U A43C C46U C66A C71U"
parameter_measured = "yeast fitness (ln)"
reported_measurement = -0.24

[[record]]
variant = "G1A U2G G6U C27U A43C C66U A69G A70U C71U"
parameter_measured = "yeast fitness (ln)"
reported_measurement = -0.54

[[record]]
variant = "G1A C27U C66A C71U"
parameter_measured = "yeast fitness (ln)"
reported_measurement = -0.159

[[record]]
variant = "G1A U2G G6U A43C C46U A69G C71U"
parameter_measured = "yeast fitness (ln)"
reported_measurement = -0.393

[[record]]
variant = "U2G G6A C66A A69G A70U C71U"
parameter_measured = "yeast fitness (ln)"
reported_measurement = -0.31

[[record]]
variant = "G1A U2G C27U C46U C66U A69G A70U"
parameter_measured = "yeast fitness (ln)"
reported_measurement = -0.265

[[record]]
variant = "G1A G6U A43C C46U C66A A69G A70G"
parameter_measured = "yeast fitness (ln)"
reported_measurement = -0.258

